Data provenance: patent US10358434B2

# Experiment Description: In vivo kinetics experiment (radioactivity distribution)
# Parameters: species or system Wistar male rat
# Experimental Setup: rat, caudal vein, 60 min after administration
Readout Type: Adrenal gland/liver ratio of radioactivity accumulation

>>> recorded_value("Fc1cc2nc(-c3cncc(Cn4ccnc4)c3)n(CC[18F])c2cc1Cl [[^18F] 100]")
5.20
>>> recorded_value("[123I]c1ccc2nc(-c3cncc(Cn4ccnc4)c3)n(C3CC3)c2c1 [[^123I] 602]")
16.66
>>> recorded_value("Fc1cc2nc(-c3cncc(Cn4ccnc4)c3)n(CC[18F])c2cc1Br [[^18F] 200]")
6.87
>>> recorded_value("Fc1cc2nc(-c3cncc(Cn4ccnc4)c3)n(CCC[18F])c2cc1Cl [[^18F] 500]")
7.45
>>> recorded_value("FCCn1c(-c2cncc(Cn3ccnc3)c2)nc2cc(F)c([123I])cc21 [[^123I] 400]")
16.66
>>> recorded_value("[123I]c1ccc2nc(-c3cncc(Cn4ccnn4)c3)n(C3CC3)c2c1 [[^123I] 603]")
20.07
